Every entry's value here was drawn from patent US20150072968A1.

# Assay details: Phase 1 single dose PK of 750 mg ceftolozane/tazobactam in severe renal impairment and ESRD on hemodialysis (Example 8)
# Format: in vivo, human
# Experimental parameters: both sexes, human, plasma, iv, 750 mg, ESRD on HD; Day 1 IV infusion of 750 mg (non-hemodialysis phase); read-out: Cmax, Mean (CV %)
Metric name: Cmax (ng/mL)
Please give a number only; it is taken to be in ng/mL.

Query :: Data request, read-out Cmax, for `Cn1c(N)c(NC(=O)NCCN)c[n+]1CC1=C(C(=O)[O-])N2C(=O)[C@@H](NC(=O)/C(=N\OC(C)(C)C(=O)O)c3nsc(N)n3)[C@H]2SC1`
Result :: 44500

Query :: Data request, read-out Cmax, for `C[C@]1(Cn2ccnn2)[C@H](C(=O)O)N2C(=O)C[C@H]2S1(=O)=O`
Result :: 21200
